Sourced from paper PMC11303286

# PROCEDURE TEXT: MTT cell viability assay, HaCaT
# Assay type: cell-based, human
# TEST SETTINGS: human, HaCaT keratinocyte cells, 50 μM, compared to control
MEASURED ENDPOINT: viability at 24 h, 50 µM (%)

molecule=O=C1C[C@@H](c2ccc(O)cc2)Oc2cc(O)cc(O)c21 recorded_result=93.2
molecule="O=C1C[C@@H](c2ccc(OS(=O)(=O)O)cc2)Oc2cc(O)cc(O)c21 [naringenin 4’-O-sulphate]" recorded_result=95.4

* * *

# PROCEDURE TEXT: MTT cell viability assay, HaCaT
# Assay type: cell-based, human
# TEST SETTINGS: human, HaCaT keratinocyte cells, 100 μM, compared to control
Recorded viability at 24 h, 100 µM values for a group of compounds are listed next.
MEASURED ENDPOINT: viability at 24 h, 100 µM (%)

compound="O=C1C[C@@H](c2ccc(O)cc2)Oc2cc(O)cc(O)c21 [naringenin]" measured_endpoint="viability at 24 h, 100 µM" scale_unit=% recorded_result=91.9
compound="O=C1C[C@@H](c2ccc(OS(=O)(=O)O)cc2)Oc2cc(O)cc(O)c21 [naringenin 4’-O-sulphate]" measured_endpoint="viability at 24 h, 100 µM" scale_unit=% recorded_result=89.2
